Below: compounds with IC50 recorded for human Bub1 (Homo sapiens (Human), UniProt O43683) in separate published works.

Solved cases (7 shown):
CCc1ccccc1NC(=O)c1c(C)nsc1Nc1nccnc1C#N ... > 20 µM
Cc1nsc(Nc2cnc(C(F)(F)F)cn2)c1C(=O)Nc1ccc(OC2CCN(C(=O)OC(C)(C)C)CC2)nc1 ... ≥ 20 µM
COc1ccc(NC(=O)c2c(C)nsc2Nc2ccc(C#N)cn2)cn1 ... > 20 µM
COc1cnc(-c2nn(Cc3nnc(C)o3)c(C3CC3)c2C)nc1Nc1ccncc1C(N)=O ... 0.68 µM
COC(=O)CCc1cccc(NC(=O)c2c(C)nsc2Nc2cnc3ccccc3n2)c1 ... > 20 µM
Cc1nsc(Nc2cc(C#N)ccn2)c1C(=O)Nc1cccc(NC(=O)C(C)(C)C)c1 ... > 20 µM
Cc1nsc(Nc2cnc(C(F)(F)F)cn2)c1C(=O)Nc1ccc(OCC2CCN(CC(F)(F)F)CC2)nc1 ... ≥ 20 µM

Now consider the entry below.
Record "Cc1nsc(Nc2cnc(C(F)(F)F)cn2)c1C(=O)Nc1ccc(F)c(OCCCN(C)CC(F)F)c1" : what is its IC50 with human Bub1 (Homo sapiens (Human), UniProt O43683)?
> 20 µM
